Test system: KRAS patient-derived spheroids with HUVEC/MSC, viability
ASSAY_PROCEDURE: Anticancer human tumor 941728-121-R-J1-PDC patient-derived lung adenocarcinoma cell line growth inhibition [KRAS2]
CONDITION_SET: second compound 3.16 µM; first compound 0.0316 µM; stronger effect = lower value

{"columns": ["COMPOUND", "EXPERIMENTAL_TARGET", "viability, T/C"],
 "data": [
  ["O=C(c1cc(Cc2n[nH]c(=O)c3ccccc23)ccc1F)N1CCN(C(=O)C2CC2)CC1 + C=CC(=O)N1CCN(c2nc(OCC3CCCN3C)nc3c2CCN(c2cccc4cccc(C)c24)C3)CC1CC#N", "KRAS patient-derived spheroids with HUVEC/MSC, viability", "0.38%"],
  ["CC(=O)Nc1cccc(-n2c(=O)n(C3CC3)c(=O)c3c(Nc4ccc(I)cc4F)n(C)c(=O)c(C)c32)c1 + C=CC(=O)N1CCN(c2nc(OCC3CCCN3C)nc3c2CCN(c2cccc4cccc(C)c24)C3)CC1CC#N", "KRAS patient-derived spheroids with HUVEC/MSC, viability", "0.53%"],
  ["CC1OCC2(CCN(c3cnc(Sc4ccnc(N)c4Cl)c(N)n3)CC2)C1N (stereo not drawn) + CNCc1ccccc1-c1csc(C(C)Nc2nc(C)nc3cc(OC)c(OC)cc23)c1", "KRAS patient-derived spheroids with HUVEC/MSC, viability", "5.49%"]
]}

###

Tested on: KRAS patient-derived spheroids with HUVEC/MSC, viability
ASSAY_PROCEDURE: Anticancer human tumor 941728-121-R-J1-PDC cell line growth inhibition [KRAS2];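 further: spheroids exposed to agents for seven days before readout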
CONDITION_SET: second compound 10 µM; first compound 1 µM; stronger effect = lower value
Please use yes (1) for viability, T/C under 10% and no (0) for everything else, ties included.

{"columns": ["MOLECULE", "EXPERIMENTAL_TARGET", "GROUP_LABEL"],
 "data": [
  ["Cn1nccc1Nc1nccc(-c2cc3c(s2)C(C)(C)N(CCN2CCOCC2)C3=O)n1 + C=CC(=O)N1CCN(c2nc(=O)n(-c3c(C)ccnc3C(C)C)c3nc(-c4c(O)cccc4F)c(F)cc23)C(C)C1", "KRAS patient-derived spheroids with HUVEC/MSC, viability", "no (0)"],
  ["CC1COCCN1c1cc(-c2ccnn2C)c2ccnc(-c3ccn[nH]3)c2n1 (stereo not given) + CC1OCC2(CCN(c3cnc(Sc4ccnc(N)c4Cl)c(N)n3)CC2)C1N", "KRAS patient-derived spheroids with HUVEC/MSC, viability", "no (0)"],
  ["CC1OCC2(CCN(c3cnc(Sc4ccnc(N)c4Cl)c(N)n3)CC2)C1N (stereo not given) + COc1cc2nc(C)nc(NC(C)c3cc(N)cc(C(F)(F)F)c3)c2cc1OC1CCOC1", "KRAS patient-derived spheroids with HUVEC/MSC, viability", "no (0)"],
  ["COc1cc(Nc2ncc3c(n2)-c2ccc(Cl)cc2C(c2c(F)cccc2OC)=NC3)ccc1C(=O)O + COc1cc2nc(C)nc(NC(C)c3cc(N)cc(C(F)(F)F)c3)c2cc1OC1CCOC1", "KRAS patient-derived spheroids with HUVEC/MSC, viability", "yes (1)"],
  ["CCN1CCN(Cc2ccc(Nc3ncc(F)c(-c4cc(F)c5nc(C)n(C(C)C)c5c4)n3)nc2)CC1 + C=CC(=O)N1CCN(c2nc(=O)n(-c3c(C)ccnc3C(C)C)c3nc(-c4c(O)cccc4F)c(F)cc23)C(C)C1", "KRAS patient-derived spheroids with HUVEC/MSC, viability", "no (0)"]
]}

###

System: KRAS patient-derived spheroids with HUVEC/MSC, viability
ASSAY_PROCEDURE: Anticancer human tumor 941728-121-R-J1-PDC cell line growth inhibition [KRAS2];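 further: spheroids exposed to agents for seven days before readout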
CONDITION_SET: second compound 0.1 µM; first compound 0.1 µM; stronger effect = lower value
Documented viability, T/C across a set of compounds

{"columns": ["COMPOUND", "ENDPOINT_UNIT", "viability, T/C"],
 "data": [
  ["CCNC(=O)CC1N=C(c2ccc(Cl)cc2)c2cc(OC)ccc2-n2c(C)nnc21 (stereo not drawn) + COc1cc2nc(C)nc(NC(C)c3cc(N)cc(C(F)(F)F)c3)c2cc1OC1CCOC1", "%", 48.2],
  ["CC1OCC2(CCN(c3cnc(Sc4ccnc(N)c4Cl)c(N)n3)CC2)C1N (stereo not drawn) + CNCc1ccccc1-c1csc(C(C)Nc2nc(C)nc3cc(OC)c(OC)cc23)c1", "%", 38.1],
  ["COC(=O)c1ccc2c(C(=Nc3ccc(N(C)C(=O)CN4CCN(C)CC4)cc3)c3ccccc3)c(O)[nH]c2c1 + C=CC(=O)N1CCN(c2nc(OCC3CCCN3C)nc3c2CCN(c2cccc4cccc(C)c24)C3)CC1CC#N", "%", 27]
]}

###

System: KRAS patient-derived spheroids with HUVEC/MSC, viability
ASSAY_PROCEDURE: Anticancer human tumor 941728-121-R-J1-PDC cell line growth inhibition [KRAS2];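 further: spheroids exposed to agents for seven days before readout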
CONDITION_SET: second compound 10 µM; first compound 0.1 µM; stronger effect = lower value

{"columns": ["COMPOUND", "viability, T/C"],
 "data": [
  ["CN(C)C/C=C/C(=O)Nc1cc2c(Nc3ccc(F)c(Cl)c3)ncnc2cc1O[C@H]1CCOC1 + COc1cc2nc(C)nc(NC(C)c3cc(N)cc(C(F)(F)F)c3)c2cc1OC1CCOC1", "16.4%"],
  ["CC1OCC2(CCN(c3cnc(Sc4ccnc(N)c4Cl)c(N)n3)CC2)C1N (stereo unspecified) + C=CC(=O)N1CCN(c2nc(=O)n(-c3c(C)ccnc3C(C)C)c3nc(-c4c(O)cccc4F)c(F)cc23)C(C)C1", "35%"],
  ["CCNC(=O)CC1N=C(c2ccc(Cl)cc2)c2cc(OC)ccc2-n2c(C)nnc21 (stereo unspecified) + C=CC(=O)N1CCN(c2nc(=O)n(-c3c(C)ccnc3C(C)C)c3nc(-c4c(O)cccc4F)c(F)cc23)C(C)C1", "31.6%"],
  ["Cn1nccc1Nc1nccc(-c2cc3c(s2)C(C)(C)N(CCN2CCOCC2)C3=O)n1 + CC1OCC2(CCN(c3cnc(Sc4ccnc(N)c4Cl)c(N)n3)CC2)C1N", "29.5%"],
  ["COc1cc(Nc2ncc3c(n2)-c2ccc(Cl)cc2C(c2c(F)cccc2OC)=NC3)ccc1C(=O)O + C=CC(=O)N1CCN(c2nc(=O)n(-c3c(C)ccnc3C(C)C)c3nc(-c4c(O)cccc4F)c(F)cc23)C(C)C1", "38.5%"],
  ["COc1cc2nccc(Oc3ccc(NC(=O)C4(C(=O)Nc5ccc(F)cc5)CC4)cc3)c2cc1OC + CNCc1ccccc1-c1csc(C(C)Nc2nc(C)nc3cc(OC)c(OC)cc23)c1", "0.07%"],
  ["COc1cc(Nc2ncc3c(n2)-c2ccc(Cl)cc2C(c2c(F)cccc2OC)=NC3)ccc1C(=O)O + CC1OCC2(CCN(c3cnc(Sc4ccnc(N)c4Cl)c(N)n3)CC2)C1N", "15.4%"],
  ["CC1(C)CCC(CN2CCN(c3ccc(C(=O)NS(=O)(=O)c4ccc(NCC5CCOCC5)c([N+](=O)[O-])c4)c(Oc4cnc5[nH]ccc5c4)c3)CC2)=C(c2ccc(Cl)cc2)C1 + CC1OCC2(CCN(c3cnc(Sc4ccnc(N)c4Cl)c(N)n3)CC2)C1N", "23.8%"],
  ["CC(C)NCC(C(=O)N1CCN(c2ncnc3c2C(C)CC3O)CC1)c1ccc(Cl)cc1 (stereo unspecified) + CC1OCC2(CCN(c3cnc(Sc4ccnc(N)c4Cl)c(N)n3)CC2)C1N", "17.9%"],
  ["CCN1CCN(Cc2ccc(Nc3ncc(F)c(-c4cc(F)c5nc(C)n(C(C)C)c5c4)n3)nc2)CC1 + COc1cc2nc(C)nc(NC(C)c3cc(N)cc(C(F)(F)F)c3)c2cc1OC1CCOC1", "0.46%"],
  ["COc1cc2nccc(Oc3ccc(NC(=O)C4(C(=O)Nc5ccc(F)cc5)CC4)cc3)c2cc1OC + CC1OCC2(CCN(c3cnc(Sc4ccnc(N)c4Cl)c(N)n3)CC2)C1N", "14.8%"]
]}
